Just for reference, PubChem BioAssay AID1159580 is where these values come from.

Could you please report measured normalized growth for the items listed next?
# Protocol Description: chemical genetic growth profiling, strain panel (AID 1159580);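 note: tested at 20 µM; growth read once vehicle control cultures reached saturation at 30 °C; 1 = growth at the plate median or of vehicle wells; lower values mean less growth of the strain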
# Recorded Conditions: S. cerevisiae deletion strains, growth OD, locus YNL307C, strain MCK1 (second series), hits give low values
The whole screen tested about 5,500 compounds, of which about 2,000 (36%) were called active. Roughly 18% stayed inconclusive and do not appear here. The list shows a part of the results.
API note: the answer field is a bare number with no unit suffix.

q: Quick one: normalized growth for N#C/C(=N/Nc1ccccc1)C(=O)c1ccccc1OC(F)(F)F ?
a: 0.893

q: Param item: CCOC(=O)c1ccc2nc(N=CNO)sc2c1
a: 0.926

q: Param item: COc1ccc(C(CC(=O)c2ccccc2)Sc2ccccc2N)cc1OC (stereo unspecified)
a: 0.974

q: Param item: Cc1nn(C)c(C(=O)Sc2ccc(OC(F)(F)F)cc2)c1[N+](=O)[O-]
a: 0.918

q: Param item: O=[N+]([O-])c1ccc(ON=C2CCCCC2)c([N+](=O)[O-])c1
a: 0.699

q: Param item: Cc1cccc(NC(=S)N/N=C\c2ccc(F)cc2)c1
a: 0.788

q: Param item: N#C/C(=N/Nc1ccc(F)cc1)S(=O)(=O)c1ccc(Cl)cc1
a: 0.912

q: Param item: CCCN(CCC)C(=S)NC(=O)c1cccc([N+](=O)[O-])c1
a: 0.94

q: Param item: Cc1cc(C(=O)NNS(=O)(=O)c2ccc(F)c(Cl)c2)nn1-c1c(Cl)cc(Cl)cc1Cl
a: 1.04

q: Param item: N#C/C(=N/Nc1ccc(F)cc1)C(=O)c1ccccc1
a: 0.795

q: Param item: O=C(Nc1cccc(C(F)(F)F)c1)c1cncc(C#Cc2ccccc2)c1
a: 0.77

----------
# Protocol Description: chemical genetic growth profiling, strain panel (AID 1159580);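 note: tested at 20 µM; growth read once vehicle control cultures reached saturation at 30 °C; 1 = growth at the plate median or of vehicle wells; lower values mean less growth of the strain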
# Recorded Conditions: S. cerevisiae deletion strains, growth OD, locus YDR101C, strain arx1
The campaign covered roughly 5,500 compounds. About 2,000 (36%) were called active. Inconclusive results (about 18%) are left out. Rule as the data show it: active = normalized growth mostly below about 0.91 (no sharp cut-off); inconclusive = no clear call, values can overlap the other calls; inactive = mostly above about 0.92. The list shows a part of the results.
Your reply should match one of these outcome classes. true (1) (active), false (0) (inactive)

q: Please share the test call associated with Cn1c(=O)c2c(ncn2CC(O)CO)n(C)c1=O (stereo not drawn) .
a: false (0)

q: Param item: O=C1C(Cl)=C(Cl)C(=O)C(Cl)=C1Cl
a: true (1)

q: Param item: CC(=O)O[C@H]1C[C@@H](OC(C)=O)C(C)(C)C2CC(=O)[C@]3(C)C(CC[C@@]4(C)[C@H](C(=O)O)OC(=O)C5OC543)[C@]21C (stereo partly drawn)
a: false (0)

q: Param item: C[C@@H]1CC(Cl)CC[C@H]1C(=O)OC(C)(C)C (stereo partly drawn)
a: false (0)

q: Param item: COc1ccccc1-c1coc2cc(O)ccc2c1=O
a: false (0)

q: Param item: COc1ccc([C@H]2Oc3c(I)c(OC)cc(OC)c3C[C@@H]2O)cc1OC
a: false (0)

q: Param item: O=C(Oc1cc(O)cc2c1C[C@@H](OC(=O)c1cc(O)c(O)c(O)c1)[C@@H](c1cc(O)c(O)c(O)c1)O2)c1cc(O)c(O)c(O)c1
a: true (1)

q: Param item: COc1cc([C@@H]2c3cc4c(cc3C(OC3O[C@@H]5COC(C)O[C@H]5[C@H](O)[C@H]3O)C3COC(=O)[C@@H]32)OCO4)cc(OC)c1O (stereo partly drawn)
a: false (0)

q: Param item: COc1cc(OC)c2c(c1)O[C@H](c1cc(OC)c(OC)c(OC)c1)[C@H](OC(=O)c1cc(OC)c(OC)c(OC)c1)C2
a: false (0)

q: Param item: CC(=O)S[C@@H]1CC2=CC(=O)CC[C@]2(C)[C@H]2CC[C@@]3(C)[C@@H](CC[C@@]34CCC(=O)O4)C12 (stereo partly drawn)
a: false (0)

q: Param item: CN1CC(=O)N=C1N
a: false (0)

q: Param item: CC(C)NCC(O)COc1cccc2[nH]ccc12 (stereo not drawn)
a: false (0)

q: Param item: CCN(CC)Cc1ccc(Nc2ccnc3cc(Cl)ccc23)cc1O
a: false (0)

q: Param item: NCCc1cnc[nH]1
a: false (0)

q: Param item: COC(=O)C[C@H]1C2(C)CC34OC5(C)O[C@@]6([C@H](OC(C)=O)C(OC(C)=O)[C@]7(C)C(/C(=C(/O)C(C)C)C(=O)O[C@H]7c7ccoc7)[C@@]6(O5)[C@H](OC(C)=O)[C@@]3(O)C2OC(=O)C(C)C)[C@]14C (stereo partly drawn)
a: false (0)

q: Param item: C[C@]12CCC(=O)C=C1C=CC1C2CC[C@@]2(C)C1CC[C@@]2(O)CCC(=O)O (stereo partly drawn)
a: false (0)

q: Param item: CN1C2CCC1CC(OC(c1ccccc1)c1ccccc1N)C2 (stereo not drawn)
a: false (0)

q: Param item: Oc1ccc2c(c1)O[C@H](c1ccc(O)c(O)c1)[C@@H](O)C2
a: false (0)

q: Param item: O=C1c2ccc(O)cc2O[C@H](c2cc(O)c(O)c(O)c2)[C@H]1O
a: false (0)

q: Param item: Oc1cc(O)c2c(c1)O[C@H](c1cc(O)c(O)c(O)c1)[C@H](O)C2
a: false (0)

q: Param item: O=C(O)CCCc1ccccc1
a: false (0)

q: Param item: c1ccc2c(c1)sc1ccccc12
a: false (0)

q: Param item: CCN(CC)C(=O)N1CCN(C)CC1
a: false (0)

q: Param item: C=CCc1ccc(O)c(OC)c1
a: false (0)

q: Param item: O=C(O)c1cc2cc(F)ccc2[nH]1
a: false (0)

q: Param item: O=c1c(-c2ccc(O)cc2)coc2cc(O)ccc12
a: false (0)

q: Param item: COc1ccc(CN(CCN(C)C)c2ccccn2)cc1
a: false (0)

q: Param item: C[C@]12CCC(=O)C=C1C=CC1C2CC[C@@]2(C)C1CC[C@@]21CCC(=O)O1 (stereo partly drawn)
a: false (0)

q: Param item: CCCCCCC(C)OC(=O)COc1cc(Cl)c(Cl)cc1Cl (stereo not drawn)
a: false (0)

q: Param item: CN1C2C[C@H](OC(=O)[C@H](CO)c3ccccc3)C[C@H]1[C@@H](O)C2
a: false (0)

q: Param item: COc1ccc(OC)c(C(O)CNC(=O)CN)c1 (stereo not drawn)
a: false (0)

q: Param item: COc1cc(CNC(=O)CCCC/C=C/C(C)C)ccc1O
a: false (0)

q: Param item: O=C1CCC(N2C(=O)c3ccccc3C2=O)C(=O)N1 (stereo not drawn)
a: false (0)
